test protocol: self-splicing fitness, log relative to wild type (ln ratio); higher = more splicing; Tetrahymena group I intron in knt gene, E. coli kanamycin selection, DiMSum; sequences stand for … in CUCUCU…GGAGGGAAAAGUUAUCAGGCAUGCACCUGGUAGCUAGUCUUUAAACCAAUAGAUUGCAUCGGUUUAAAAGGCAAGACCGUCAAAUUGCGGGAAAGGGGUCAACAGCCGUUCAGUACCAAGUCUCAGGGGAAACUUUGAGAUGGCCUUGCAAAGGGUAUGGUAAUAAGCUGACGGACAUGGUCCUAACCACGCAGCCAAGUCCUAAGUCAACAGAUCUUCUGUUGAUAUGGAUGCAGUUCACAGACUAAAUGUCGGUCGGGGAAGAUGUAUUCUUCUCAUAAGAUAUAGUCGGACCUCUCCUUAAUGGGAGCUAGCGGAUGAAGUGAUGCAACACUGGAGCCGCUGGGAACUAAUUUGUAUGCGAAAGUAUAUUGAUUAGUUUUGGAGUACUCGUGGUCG;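 also: selection with 25 µg/mL kanamycin versus none on LB agar overnight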
test conditions: 37 °C
Below, each entry is listed alongside its reported self-splicing fitness (ln).
Quick one: just the number, no unit, thanks!

Sample answers from the record:
- item sequence: "UGCAAGCAAUAUUACGCAAU"
  self-splicing fitness (ln): -2.06
- item sequence: "CCAUAGCAAUAUUACGUGGU"
  self-splicing fitness (ln): -1.73
- item sequence: "ACCUAGCAAUAUUACGGGAU"
  self-splicing fitness (ln): -0.904
- item sequence: "CCCUAGCAAUAUUACGUUUU"
  self-splicing fitness (ln): -2.2
- item sequence: "GGACAGCAAUAUUACGAACU"
  self-splicing fitness (ln): 0.442

Query sequence follows.
Ask: // lookup self-splicing fitness (ln) for `AACGAGCAAUAUUACGAGUG`
Reply: -0.602

* * *

test protocol: self-splicing fitness, log relative to wild type (ln ratio); higher = more splicing; Tetrahymena group I intron in knt gene, E. coli kanamycin selection, DiMSum; sequences stand for … in CUCUCU…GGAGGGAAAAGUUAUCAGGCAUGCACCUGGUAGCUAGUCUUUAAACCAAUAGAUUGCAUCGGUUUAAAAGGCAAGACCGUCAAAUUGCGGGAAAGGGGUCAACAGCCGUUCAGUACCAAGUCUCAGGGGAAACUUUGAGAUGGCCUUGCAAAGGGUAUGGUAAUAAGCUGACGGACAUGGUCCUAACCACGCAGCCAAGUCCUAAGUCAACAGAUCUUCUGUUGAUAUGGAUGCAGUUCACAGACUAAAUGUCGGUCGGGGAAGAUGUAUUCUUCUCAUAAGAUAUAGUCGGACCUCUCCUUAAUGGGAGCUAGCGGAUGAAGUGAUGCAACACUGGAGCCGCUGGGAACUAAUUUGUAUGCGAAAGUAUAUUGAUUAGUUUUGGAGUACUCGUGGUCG
test conditions: 30 °C
Label condition met when self-splicing fitness (ln) >= -3; otherwise condition not met.

- item sequence: "UUAAAGCAAUAUUACGUAUA"
  group label: "condition met"
- item sequence: "GACCAGCAAUAUUACGUAUA"
  group label: "condition met"
- item sequence: "UGGAAGCAAUAUUACGAUAU"
  group label: "condition met"
- item sequence: "AAAUAGCAAUAUUACGUUUU"
  group label: "condition met"
- item sequence: "UAAAAGCAAUAUUACGAACU"
  group label: "condition met"
- item sequence: "AGGCAGCAAUAUUACGUAUU"
  group label: "condition met"
- item sequence: "GUACAGCAAUAUUACGGACU"
  group label: "condition met"
- item sequence: "CUUGAGCAAUAUUACGCUGG"
  group label: "condition not met"
- item sequence: "CCACAGCAAUAUUACGUUUC"
  group label: "condition not met"
- item sequence: "UGUGAGCAAUAUUACGAUGG"
  group label: "condition met"

Ask: Can `GCCGAGCAAUAUUACGCAGA` be said to have self-splicing fitness (ln) at or above -3?
Reply: condition not met

Origin of measurements: the supplement of paper PMC7877785
